- testSummary: Solubility screening of Formula (I) in crystallization solvents at RT and 50° C. (TABLE 3)
- Format: physicochemical
- measurementSetup: tetrahydrofuran (THF), organic solvent or mixture, thermodynamic from solid, THF; RT; read-out: Nominal Solubility
measuredAttribute: solubility (mg/mL)
Provide only the numeric value, understood in mg/mL.

Look up solubility for this compound: CC[C@H](C)C(=O)N1CCC(NC(=O)Nc2ccc(OC(F)(F)F)c(F)c2)CC1 [Formula (I)]
48

###

- testSummary: Differential scanning calorimetry (DSC): heat of fusion, thermal events
- Format: physicochemical
measuredAttribute: DSC Thermal Events, Exo: crystallization of pattern D

INSERT INTO assay_data (molecule, valueobserved) VALUES
  ('CC[C@H](C)C(=O)N1CCC(NC(=O)Nc2ccc(OC(F)(F)F)c(F)c2)CC1 [H]', '133 °C crystallization of pattern D'),
  ('CC[C@H](C)C(=O)N1CCC(NC(=O)Nc2ccc(OC(F)(F)F)c(F)c2)CC1 [L]', '138 °C crystallization of pattern D');

Reported DSC Thermal Events, Exo: crystallization of pattern D, molecule CC[C@H](C)C(=O)N1CCC(NC(=O)Nc2ccc(OC(F)(F)F)c(F)c2)CC1 [Form A] : ____
127 °C crystallization of pattern D

Also, CC[C@H](C)C(=O)N1CCC(NC(=O)Nc2ccc(OC(F)(F)F)c(F)c2)CC1 [K] please.
130 °C crystallization of pattern D

Another molecule: CC[C@H](C)C(=O)N1CCC(NC(=O)Nc2ccc(OC(F)(F)F)c(F)c2)CC1 [E]
126 °C crystallization of pattern D
